Origin of measurements: patent US20090005257A1

target: T1, protein A (UniProt P38507 37-477); assay: phage ELISA on protein A, heated 80 C against unheated, three data points
T1 construct: also called pA
Parameter Refoldability on phage (protein A binding retained after heating): see the listing below.
reportedMetric: Refoldability on phage (protein A binding retained after heating) (%)

INSERT INTO results (binder, valuemeasured) VALUES
  ('DP47 F27D/F29V/Y32D/S35G (other, name in Kabat numbering, kept apart as printed) VH: EVQLLESGGGLVQPGGSLRLSCAASGDTVSSDAMGWVRQAPGKGLEWVSAISGSGGSTYYADSVKGRFTISRDNSKNTLYLQMNSLRAEDTAVYYCAKSYGAFDYWGQGTLVTVSS', 80),
  ('pA-C36 (other, Frameworks of DP47d, ranges as for HEL4; also called pA-36) VH: EVQLLESGGGLVQPGGSLRLSCAASGVNVSHDSMTWVRQAPGKGLEWVSAIRGPNGSTYYADSVKGRFTISRDNSKNTLYLQMNSLRAEDTAVYYCASGARHADTERPPSQQTMPFWGQGTLVTVSS', 80),
  ('DP47 S30N/A33D (other, name in Kabat numbering, also called A33D/S30N) VH: EVQLLESGGGLVQPGGSLRLSCAASGFTFNSYDMSWVRQAPGKGLEWVSAISGSGGSTYYADSVKGRFTISRDNSKNTLYLQMNSLRAEDTAVYYCAKSYGAFDYWGQGTLVTVSS', 81),
  ('DP47 F27D/F29V (other, name in Kabat numbering) VH: EVQLLESGGGLVQPGGSLRLSCAASGDTVSSYAMSWVRQAPGKGLEWVSAISGSGGSTYYADSVKGRFTISRDNSKNTLYLQMNSLRAEDTAVYYCAKSYGAFDYWGQGTLVTVSS', 62),
  ('HEL4 (other, Human VH dAb against hen egg lysozyme; also called dAb HEL4; Fd-myc-HEL4) VH: EVQLLESGGGLVQPGGSLRLSCAASGFRISDEDMGWVRQAPGKGLEWVSSIYGPSGSTYYADSVKGRFTISRDNSKNTLYLQMNSLRAEDTAVYYCASALEPLSEPLGFWGQGTLVTVSS', 82),
  ('DP47 S53P/G54D (other, name in Kabat numbering) VH: EVQLLESGGGLVQPGGSLRLSCAASGFTFSSYAMSWVRQAPGKGLEWVSAISGPDGSTYYADSVKGRFTISRDNSKNTLYLQMNSLRAEDTAVYYCAKSYGAFDYWGQGTLVTVSS', 19);
